- measurement-notes: Human HepG2 cell viability assay in 384 well format
- Format: toxicity, cell-based
- Set-up: dose 125 nL, time 70.5 hour; concentration not given beside the values
- experimental-parameters: HepG2 cells, read-out: Inhibition
readout-name: cytotoxicity at 70.5 h (%)
Just the number please, in %, no unit attached.

Fill in the blank: the reported cytotoxicity at 70.5 h of CCCN1CCC2(Cc3ccccc3NC2=O)C1 (configuration not stated) is ____.
-0.983

Now give it for Cc1ccnc(C2(C)CCCN2C(=O)c2cnccn2)n1 (configuration not stated) too.
-10.4

Entry CC1c2cc(F)ccc2CCN1CCCS(=O)(=O)C(C)C (configuration not stated) please
-2.78

Follow-up item: O=S(=O)(c1c(N2CCCCC2)ccc2nonc12)N1CCCCC1
-8.4

How about this compound: CN1CCN(Cc2cn3c(n2)CN(C2CCOCC2)CC3)CC1
-6.56

What would you report for COC(=O)C(c1cc(F)ccc1F)N(C)C(=O)c1csnn1 (configuration not stated) ?
7.84

And for COc1ccccc1C1CNC(=O)c2nc(-c3ncc[nH]3)[nH]c2C1 (configuration not stated) ?
-10.6

Same for CNS(=O)(=O)c1ccc(CNC(=O)N(CC(C)C)C(C)C)cc1
-96.5

Follow-up item: FC(F)(F)c1cccc(CN2CCOC[C@H](Oc3cccnc3)C2)c1
-1.63

Request: Cn1cc(-c2csc(CN3CCOCC3)n2)cn1
-1.08

# iterate: COc1cc2nc(C)sc2cc1NC(=O)CN(C)C(C)C
4.08

Query COc1cccc(CN(C)C(=O)Nc2ccc3c(c2)OCCO3)c1 next
12.4

The measured values listed here are drawn from ChEMBL document CHEMBL3507680.
